Molecular target: rat Y2 receptor (Rattus norvegicus, UniProt Q9ERC0)
Construct: membranes from rat or mouse hippocampus were prepared; from tissue; host or cells: rat hippocampus membranes
Sequence (Q9ERC0 1-381): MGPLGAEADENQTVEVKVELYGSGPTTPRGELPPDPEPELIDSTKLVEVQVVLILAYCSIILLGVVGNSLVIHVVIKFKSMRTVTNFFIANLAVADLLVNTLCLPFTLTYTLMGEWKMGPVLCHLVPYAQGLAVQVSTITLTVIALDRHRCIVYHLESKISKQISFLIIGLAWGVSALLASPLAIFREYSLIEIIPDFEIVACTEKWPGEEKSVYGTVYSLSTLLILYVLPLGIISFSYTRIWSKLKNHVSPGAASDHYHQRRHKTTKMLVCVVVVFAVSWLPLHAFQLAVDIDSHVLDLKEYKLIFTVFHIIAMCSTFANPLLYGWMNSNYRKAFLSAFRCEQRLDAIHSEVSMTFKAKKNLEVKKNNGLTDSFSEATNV
Test: Neuropeptide Y2 radioligand binding assay, [125I]PYY, rat hippocampus membranes
Settings: read-out: rY2 pKi (converted)
Experimental: Radioligand binding assays for the human and rat/mouse Y2 receptor were performed as described in Bonaventure, P., D. Nepomuceno, C. […] KAN-Ts endogenously expressing Y2 receptors were used, for the rat and mouse Y2 receptor, membranes from rat or mouse hippocampus were prepared. […] Plates were dried for 1 h in a 55° C. oven, scintillation fluid was added and the radioactivity was counted in a Packard TopCount. […]
property: Ki (µM)

CCN(CC)C(=O)C(c1ccccc1)N1CCN(c2ccc(NC(=O)c3ccccc3-c3cccnc3)cc2F)CC1 (single isomer, unassigned; (-)) [(−)-Cmpd (A)] = 0.012

[A] CCN(CC)C(=O)C(c1ccccc1)N1CCN(c2ccc(NC(=O)c3ccccc3-c3ccccc3)cc2F)CC1 (stereo not shown) [Cmpd (C)]
[B] CCN(CC)C(=O)C(c1ccccc1)N1CCN(c2ccc(NC(=O)c3ccccc3-c3cccnc3)cc2F)CC1 (racemic) [Cmpd (A)]
[C] CCN(CC)C(=O)C(c1ccccc1)N1CCN(c2ccc(NC(=O)c3ccccc3-c3cccnc3)cc2F)CC1 (single isomer, unassigned; (+)) [(+)-Cmpd (A)]
Ask | # rank by Ki, ascending (min first) Response field: labels, in requested order.
Reply | B, C, A

* * *

Assay: Pharmacokinetic study in dogs
Type: in vivo, male Beagle dog
Details: male, beagle, plasma; dog, PO 5 mg/kg
property: MRT inf (h)
Answer in h, number only, no unit symbol.

Ask | Output measured MRT inf for this item: CCN(CC)C(=O)C(c1ccccc1)N1CCN(c2ccc(NC(=O)c3ccccc3-c3cccnc3)cc2F)CC1 (racemic)
Reply | 1.72

* * *

Experiment: Pharmacokinetic study in dogs
Format: in vivo, male Beagle dog
Settings: male, beagle, plasma; dog, IV 1 mg/kg
property: half-life (min)
Please give a number only; it is taken to be in min.

Ask | Specify reported half-life for the molecule shown: CCN(CC)C(=O)C(c1ccccc1)N1CCN(c2ccc(NC(=O)c3ccccc3-c3cccnc3)cc2F)CC1 (racemic)
Reply | 28.2

* * *

Experiment: Pharmacokinetic study in rats
Format: in vivo
Settings: whole blood; rat, SC 10 mg/kg
Procedure: The pharmacokinetic, blood-brain barrier penetration and ex vivo receptor occupancy studies were performed as described in Bonaventure, P., D. Nepomuceno, C. […] All blood samples were deproteinized by 1:4 dilution of the sample with acetonitrile with vigorous mixing. […] Samples were analyzed by LC-MS/MS. […] Oral, subcutaneous and intravenous pharmacokinetic parameters of the compound of formula (A) were determined in rats and are listed in Table 2 below.
property: AUC(0-inf) (µM·h)
Kindly provide the numeric value in µM·h only, without the unit symbol.

Ask | Complete the entry with AUC(0-inf) for CCN(CC)C(=O)C(c1ccccc1)N1CCN(c2ccc(NC(=O)c3ccccc3-c3cccnc3)cc2F)CC1 (racemic) [Cmpd (A)]
Reply | 7.91
